The reported numbers originate from patent US7439343B2.

- ASSAYED SYSTEM: horse cytochrome-C on Source 15S cation exchange resin
- RUN DESCRIPTION: Batch displacement assay, cytochrome-C on Source 15S
- Assay type: binding
- STATED CONDITIONS: input displacer concentration displacing 50% of bound protein; 50 mM phosphate, pH 6.0
RECORDED METRIC: DC50 (µM)
Report as a plain number; the unit µM is understood.

COMPOUND	DC50 (µM)
NCCNC(=O)NCC1OC(OC2C(CO)OC(OC3C(O)C(NC(=O)NCCN)CC(NC(=O)NCCN)C3OC3OC(CNC(=O)NCCN)C(O)C(O)C3NC(=O)NCCN)C2O)C(NC(=O)NCCN)C(O)C1O (stereo not shown) [14a]	1300
NCC1OC(OC2C(CO)OC(OC3C(O)C(N)CC(N)C3OC3OC(CN)C(O)C(O)C3N)C2O)C(N)C(O)C1O (stereo not shown) [Neomycin, neomycin, reference compound]	1700
NC[C@H]1O[C@H](O[C@H]2[C@H](O)[C@@H](O[C@H]3O[C@H](CO)[C@@H](O)[C@H](N)[C@H]3O)[C@H](N)C[C@@H]2N)[C@H](N)[C@@H](O)[C@@H]1O [Bekanamycin, bekanamycin, reference compound]	3100
NCCCNCCCCNCCCNC(=O)OC1CC(n2cnc3c(N)ncnc32)OC1CO (stereo not shown)	12900
NC[C@H]1O[C@H](O[C@H]2[C@H](O)[C@@H](O)[C@H](N)C[C@@H]2N)[C@H](N)[C@@H](O)[C@@H]1O [Neamine, neamine, reference compound]	4900
NCCCNCCCCNCCCNC(=O)OCC1OC(n2cnc3c(N)ncnc32)CC1O (stereo not shown)	6200
NCCNCCN [Diethylenetriamine, diethylenetriamine, reference compound]	14400
NCCCNCCCCNCCCNC(=O)NC1C(OCc2ccccc2)OC(COC(=O)NCCCNCCCCNCCCN)C(O)C1O (stereo not shown) [4c]	800

Missing value: DC50, horse cytochrome-C on Source 15S cation exchange resin, entry NCCCNCCCCNCCCNC(=O)NCC1OC(OC2C(NC(=O)NCCCNCCCCNCCCN)CC(NC(=O)NCCCNCCCCNCCCN)C(O)C2O)C(NC(=O)NCCCNCCCCNCCCN)C(O)C1O (stereo not shown) [17b, neamine tetraspermine] . Fill in?
600

Missing value: DC50, horse cytochrome-C on Source 15S cation exchange resin, entry COC1OC(COC(=O)NCCCNCCCCNCCCN)C(O)C(O)C1NC(=O)NCCCNCCCCNCCCN (stereo not shown) . Fill in?
800

Missing value: DC50, horse cytochrome-C on Source 15S cation exchange resin, entry NCCCNCCCCNCCCNC(=O)NC1C(O)OC(COC(=O)NCCCNCCCCNCCCN)C(O)C1O (stereo not shown) . Fill in?
900

Missing value: DC50, horse cytochrome-C on Source 15S cation exchange resin, entry COC1OC(CO)C(OC2OC(CNC(=O)NCCCNCCCCNCCCN)C(O)C(O)C2NC(=O)NCCCNCCCCNCCCN)C1O (stereo not shown) [20b] . Fill in?
800

Missing value: DC50, horse cytochrome-C on Source 15S cation exchange resin, entry NCCN [Ethylenediamine, ethylenediamine, reference compound] . Fill in?
17600
